Assay: physchem
Conditions: octanol/ph 7.0 buffer, pH 7, octanol/pH 7.0 buffer partition coefficient (P)
Assay Readout: logD

Smiles Representation	Reported Measurement
Nc1c2ncn([C@@H]3O[C@H](CO)C[C@@H]3F)c2nc[n+]1[O-]	-1.4
O=C(Nc1ncnc2c1ncn2[C@@H]1O[C@H](CO)C[C@@H]1F)c1ccccc1	0.732

* * *

Test: physchem
Settings: octanol/ph 7.0 buffer, pH 7, Log P
Criterion: logD strictly under 0.3. Met: true (1). Not met: false (0).

Molecule	Group
Nc1ncnc2c1ncn2[C@H]1CC[C@@H](CO)O1 [ddA, dideoxyadenosine, reference compound]	true (1)
CNc1nc(C)nc2c1ncn2[C@@H]1O[C@H](CO)C[C@@H]1F	false (0)
O=C(Nc1ncnc2c1ncn2[C@@H]1O[C@H](CO)C[C@@H]1F)c1ccccc1	false (0)
OC[C@@H]1C[C@H](F)[C@H](n2cnc3cncnc32)O1	true (1)
Cc1nc2c(N)ncnc2n1[C@@H]1O[C@H](CO)C[C@@H]1F	true (1)
Nc1ccn([C@H]2CC[C@@H](CO)O2)c(=O)n1 [ddC, dideoxycytidine, reference compound]	true (1)
CNc1ncnc2c1ncn2[C@@H]1O[C@H](CO)C[C@@H]1F	true (1)

* * *

Assay: Toxicity on ATH8 target cells (% toxicity, dye exclusion)
Assay type: cell-based
Conditions: human, ath8 cells, % Toxicity
Procedure: HIV Cytopathic Effect Inhibition Assay. The HIV cytopathic effect inhibition assay was performed as previously described. […] On day 8 in culture, the viable cells were counted by using the dye exclusion method. All compounds, including inactives, were evaluated a minimum of two times in separate experiments. Data reported in Table II are from representative tests. […] Calculated percentages equal to or less than zero are expressed as 0%.
Assay Readout: cytotoxicity at 192 h, 50 µM

Compound	Assay Readout	Reported Measurement
OC[C@@H]1C[C@H](F)[C@H](n2cnc3c(Cl)ncnc32)O1 [Compound 1i]	cytotoxicity at 192 h, 50 µM	46%

* * *

Assay: Toxicity on ATH8 target cells (% toxicity, dye exclusion)
Format: cell-based
Conditions: human, ath8 cells, 100 μM, without dCF; read-out: % Toxicity

Smiles Representation	cytotoxicity at 192 h, 100 µM, %
O=C(Nc1ncnc2c1ncn2[C@@H]1O[C@H](CO)C[C@@H]1F)c1ccccc1	8

* * *

Experiment: Octanol-water partition coefficient, microscale shake-flask
Settings: octanol/ph 7.0 buffer, pH 7
Description: Measurement of Octanol-Water Partition Coefficients. n-Octanol-water partition coefficients (P) were determined by a microscale shake-flask procedure, (Ford, H. et al Abstracts of Papers, 200th National Meeting of the American Chemical Society, Washington, D.C.; American Chemical Society: Washington, D.C., 1990; CARB 13) which was modification of an earlier method (Nahum, A. & Horvath, C. J. Chromatogr. 1980, 192, 315). […]

Molecule	logD
OC[C@@H]1C[C@H](F)[C@H](n2cnc3c(Cl)ncnc32)O1	0.32
Cc1nc(N)c2ncn([C@@H]3O[C@H](CO)C[C@@H]3F)c2n1	0.12
Nc1c2ncn([C@@H]3O[C@H](CO)C[C@@H]3F)c2nc[n+]1[O-]	-1.38
O=c1[nH]cnc2c1ncn2[C@@H]1O[C@H](CO)C[C@@H]1F [Compound 1b, reference compound]	-1.21

* * *

Target: adenosine deaminase (adenosine aminohydrolase, EC 3.5.4.4) (Bos taurus, UniProt P56658)
Sequence (P56658 whole entry): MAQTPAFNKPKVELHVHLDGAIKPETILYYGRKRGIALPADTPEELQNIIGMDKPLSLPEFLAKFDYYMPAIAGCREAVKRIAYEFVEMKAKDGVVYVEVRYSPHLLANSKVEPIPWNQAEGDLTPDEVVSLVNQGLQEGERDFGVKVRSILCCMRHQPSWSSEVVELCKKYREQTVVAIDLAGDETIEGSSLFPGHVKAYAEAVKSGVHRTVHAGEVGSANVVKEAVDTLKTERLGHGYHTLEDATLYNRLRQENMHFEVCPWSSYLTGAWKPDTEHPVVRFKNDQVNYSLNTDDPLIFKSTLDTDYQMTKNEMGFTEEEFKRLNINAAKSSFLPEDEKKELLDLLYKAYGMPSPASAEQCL
Experiment: Enzymatic deamination by adenosine deaminase (HPLC)
Details: bovine, adenosine deaminase
Quick reference: half-life at 50 µM of the listed items.
Assay Readout: half-life at 50 µM (min)

Molecule	Assay Readout	Reported Measurement
Nc1ncnc2c1ncn2[C@@H]1O[C@H](CO)C[C@@H]1F [Compound 1a, reference compound]	half-life at 50 µM	1.33
CNc1ncnc2c1ncn2[C@@H]1O[C@H](CO)C[C@@H]1F [Compound 1f]	half-life at 50 µM	180
Nc1ncnc2c1ncn2[C@H]1CC[C@@H](CO)O1 [ddA, dideoxyadenosine, reference compound]	half-life at 50 µM	0.0833

* * *

Assay: Toxicity on ATH8 target cells (% toxicity, dye exclusion)
Assay type: cell-based
Settings: human, ath8 cells, 5 μM, without dCF
Assay Readout: cytotoxicity at 192 h, 5 µM (%)

Smiles Representation	Reported Measurement
O=C(Nc1ncnc2c1ncn2[C@@H]1O[C@H](CO)C[C@@H]1F)c1ccccc1	2

* * *

Assay: Toxicity on ATH8 target cells (% toxicity, dye exclusion)
Assay type: cell-based
Conditions: human, ath8 cells, 50 μM, without dCF; read-out: % Toxicity
Assay Readout: cytotoxicity at 192 h, 50 µM

Smiles Representation	Reported Measurement
O=C(Nc1ncnc2c1ncn2[C@@H]1O[C@H](CO)C[C@@H]1F)c1ccccc1	0%

* * *

Assay: Toxicity on ATH8 target cells (% toxicity, dye exclusion)
Format: cell-based
Settings: human, ath8 cells, 10 μM, without dCF

Compound	Uom	cytotoxicity at 192 h, 10 µM
Nc1ncnc2c1ncn2[C@H]1CC[C@@H](CO)O1 [ddA, dideoxyadenosine, reference compound]	%	0

* * *

Assay: Toxicity on ATH8 target cells (% toxicity, dye exclusion)
Type: cell-based
Settings: human, ath8 cells, % Toxicity

Smiles Representation	cytotoxicity at 192 h, 20 µM, %
CNc1ncnc2c1ncn2[C@@H]1O[C@H](CO)C[C@@H]1F	0

Taken from patent US5459256A.
